procedure-details: Microsomal stability assay, mouse liver microsomes
Type: in vitro ADME
setup-conditions: pooled liver microsomes, pH 7.4, read-out: Mics (m) CLint
recorded-endpoint: microsomal CLint at 10 µM

Lab note: measured microsomal CLint at 10 µM of O=P(O)(O)CP(=O)(O)OC[C@H]1O[C@@H](n2ccc3c(-c4cccc5c4CCCC5)nc(Cl)nc32)[C@H](O)[C@@H]1O [7B.12] was < 1 µL/min/mg

Lab note: measured microsomal CLint at 10 µM of C[C@H](Nc1cc(Cl)nc2c1cnn2[C@@H]1O[C@H](COP(=O)(O)CP(=O)(O)O)[C@@H](O)[C@H]1O)c1ccccc1F [AB680, quemliclustat, reference compound] was < 2 µL/min/mg

Lab note: measured microsomal CLint at 10 µM of N#Cc1ccc(-c2nc(Cl)nc3c2ccn3[C@@H]2O[C@H](COP(=O)(O)CP(=O)(O)O)[C@@H](O)[C@H]2O)c2ccccc12 [7B.34] was < 2 µL/min/mg

Lab note: measured microsomal CLint at 10 µM of O=P(O)(O)CP(=O)(O)OC[C@H]1O[C@@H](n2ccc3c(-c4cc5ccccc5o4)nc(F)nc32)[C@H](O)[C@@H]1O [14D.8] was < 1 µL/min/mg

Lab note: measured microsomal CLint at 10 µM of O=P(O)(O)CP(=O)(O)OC[C@H]1O[C@@H](n2ccc3c(-c4ccc5cncnc5c4)ncnc32)[C@H](O)[C@@H]1O [4A.22] was < 1 µL/min/mg
